assayed.system: MIF (Homo sapiens)
Construct: made in house
Sequence (P14174 2-115): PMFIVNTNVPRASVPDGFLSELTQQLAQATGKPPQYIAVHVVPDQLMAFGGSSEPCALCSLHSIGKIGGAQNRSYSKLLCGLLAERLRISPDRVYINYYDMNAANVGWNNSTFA
procedure.details: Fluorescence spectroscopic titration, binding to MIF
experimental.conditions: read-out: Alexa-488-MIF/ngm app. Kd (±SD); aqueous 1 × b, pH 7.4, 1% HFIP
Method: Fluorescence spectroscopy. Fluorescence spectroscopic titrations were performed as described^28, 32. Fluorescence spectra were recorded using a JASCO FP-6500 fluorescence spectrophotometer. […] Apparent KD values (app. KD) were calculated assuming a 1/1 binding model^32.
readout.kind: Kd (nM)
// units = nM; emit number, no label

Look up and report measured Kd for this entry: H-WYFGNFLCKDDDDRFYPNDLW-NH2 [msR4M-LD3]
247
